Documented fraction ligated across a set of variants
B1: minF1; a variant is named by its letters at N, in order (parent)
chain: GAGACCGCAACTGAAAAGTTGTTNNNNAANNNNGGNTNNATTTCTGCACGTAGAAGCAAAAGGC

variants of: B1; assay: fraction ligated after 30 min (ligated reads / total reads); higher = more ligase activity; conditions: with F1*subA RNA substrate (template-directed ligation), 42 °C

[
  {
    "VARIANT SPEC": "ACAGATGGGTA G34A",
    "fraction ligated": 0.00284
  },
  {
    "VARIANT SPEC": "ACAGATGATGA",
    "fraction ligated": 0.00115
  },
  {
    "VARIANT SPEC": "ATCAAGGAGTT A28G G34T T37G A40G",
    "fraction ligated": 0.000656
  },
  {
    "VARIANT SPEC": "ACAAGGATGTG",
    "fraction ligated": 0.00585
  },
  {
    "VARIANT SPEC": "ATAGGGATGTG A29T",
    "fraction ligated": 0.012
  },
  {
    "VARIANT SPEC": "TCGAGGATGTA A29T",
    "fraction ligated": 0.00472
  },
  {
    "VARIANT SPEC": "TCAGATGGGTT T23A G34A T37G",
    "fraction ligated": 0.000991
  },
  {
    "VARIANT SPEC": "ATCAAATGGTT A28G G34T T37G",
    "fraction ligated": 0.000947
  },
  {
    "VARIANT SPEC": "TCAAGGAGTGA T23A",
    "fraction ligated": 0.00195
  },
  {
    "VARIANT SPEC": "ACGAGATGTGA A29G",
    "fraction ligated": 0.00268
  },
  {
    "VARIANT SPEC": "TAGATGATGTG",
    "fraction ligated": 0.0051
  },
  {
    "VARIANT SPEC": "TCAGATTGTGA",
    "fraction ligated": 0.00132
  },
  {
    "VARIANT SPEC": "ATCATGATTGA",
    "fraction ligated": 0.00257
  },
  {
    "VARIANT SPEC": "TCGATGGTGTA",
    "fraction ligated": 0.00285
  },
  {
    "VARIANT SPEC": "TCAGAGGAGTT G34T T37G A40G",
    "fraction ligated": 0.000453
  },
  {
    "VARIANT SPEC": "ACAGTATGTGA",
    "fraction ligated": 0.00319
  },
  {
    "VARIANT SPEC": "TCGAGATGTGA T23A",
    "fraction ligated": 0.00396
  },
  {
    "VARIANT SPEC": "ATCAAAGGGTA A28G G34A",
    "fraction ligated": 0.00347
  },
  {
    "VARIANT SPEC": "ATCAATGATGA A28G",
    "fraction ligated": 0.000976
  },
  {
    "VARIANT SPEC": "ATCATGGAGTG A28G",
    "fraction ligated": 0.00442
  },
  {
    "VARIANT SPEC": "ATAGATATGTG",
    "fraction ligated": 0.013
  },
  {
    "VARIANT SPEC": "TAGAGGAGTGA T23A A29T",
    "fraction ligated": 0.00307
  },
  {
    "VARIANT SPEC": "ATCAATGGGGT G34A G35T T37G A40T",
    "fraction ligated": 0.0016
  },
  {
    "VARIANT SPEC": "TCAAGGATGTG",
    "fraction ligated": 0.00569
  },
  {
    "VARIANT SPEC": "ATAGAGGAGTG",
    "fraction ligated": 0.00449
  },
  {
    "VARIANT SPEC": "TAGAGGATGTG",
    "fraction ligated": 0.00216
  },
  {
    "VARIANT SPEC": "ATCATGGAGTA G34T",
    "fraction ligated": 0.00594
  },
  {
    "VARIANT SPEC": "CAGAGATGTGA T23A A28T A29G",
    "fraction ligated": 0.00252
  },
  {
    "VARIANT SPEC": "CGAAGGTGTGA T23A A29T",
    "fraction ligated": 0.000502
  },
  {
    "VARIANT SPEC": "TAGATGGAGTT G34T T37G",
    "fraction ligated": 0.00107
  },
  {
    "VARIANT SPEC": "ATCGATGGGTT G34A T37G A40G",
    "fraction ligated": 0.00135
  },
  {
    "VARIANT SPEC": "TCGATGGAGTA",
    "fraction ligated": 0.00705
  },
  {
    "VARIANT SPEC": "TCAAGGATTGA",
    "fraction ligated": 0.00222
  },
  {
    "VARIANT SPEC": "ATCGATGGGTT G34A G35T T37G",
    "fraction ligated": 0.00178
  },
  {
    "VARIANT SPEC": "ATCAATGAGTG G34T",
    "fraction ligated": 0.00509
  },
  {
    "VARIANT SPEC": "ATCAAGATGTG",
    "fraction ligated": 0.0129
  },
  {
    "VARIANT SPEC": "ATCAAGGAGTG",
    "fraction ligated": 0.00548
  },
  {
    "VARIANT SPEC": "ATCAATGGGTA A28G",
    "fraction ligated": 0.000828
  },
  {
    "VARIANT SPEC": "TCAAGGAGTGA A29T",
    "fraction ligated": 0.00143
  },
  {
    "VARIANT SPEC": "TCAAGGATGTG T23A",
    "fraction ligated": 0.00539
  }
]
